Ref: patent US20120022032A1

- assay notes: MF solubility in cyclodextrin solutions
- Assay type: physicochemical
- condition label: Captisol (SBE beta-CD) 0.05M; 3 mM citrate buffer pH 4.5; three day equilibration
metric: Concentration of MF in solutions with cyclodextrins
Kindly report the value followed by its unit.

Ask: Dear colleague, I am looking for the recorded Concentration of MF in solutions with cyclodextrins of the following compound: C[C@@H]1C[C@H]2[C@@H]3CCC4=CC(=O)C=C[C@]4(C)[C@@]3(Cl)[C@@H](O)C[C@]2(C)[C@@]1(OC(=O)c1ccco1)C(=O)CCl [MF, mometasone furoate]
Reply: 84 µg/mL

---

- assay notes: Microemulsion equilibrium solubility determination of mometasone furoate
- Assay type: physicochemical
- condition label: about 5 mg drug dissolved in 2 g SOLUTOL HS-15 + 0.5 g MIGLYOL 812, then 7.5 g distilled water; target 500 mcg/ml
metric: drug concentration determined by HPLC (µg/mL)
Quick note: give the figure in µg/mL, leave out the unit.

Ask: For the compound shown here, C[C@@H]1C[C@H]2[C@@H]3CCC4=CC(=O)C=C[C@]4(C)[C@@]3(Cl)[C@@H](O)C[C@]2(C)[C@@]1(OC(=O)c1ccco1)C(=O)CCl [MF, mometasone furoate] , give the reported drug concentration determined by HPLC.
Reply: 500
